Origin of measurements: patent US11873298B2

systemName: SCD5 (Homo sapiens)
Construct: host or cells: S. cerevisiae ole1Δ strain (W303 pdr1Δ pdr3Δ background), plasmid pRS316 with TDH3 promoter and CYC1 terminator
Sequence (Q86SK9 1-330): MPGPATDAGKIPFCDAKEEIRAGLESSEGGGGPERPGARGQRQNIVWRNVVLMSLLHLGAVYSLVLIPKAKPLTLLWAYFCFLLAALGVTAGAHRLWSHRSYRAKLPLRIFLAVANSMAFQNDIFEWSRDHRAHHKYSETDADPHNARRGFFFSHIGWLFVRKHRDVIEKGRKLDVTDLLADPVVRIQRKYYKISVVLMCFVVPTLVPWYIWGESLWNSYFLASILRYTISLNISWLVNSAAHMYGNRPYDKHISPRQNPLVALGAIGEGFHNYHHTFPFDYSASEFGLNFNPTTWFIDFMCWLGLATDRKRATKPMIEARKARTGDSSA
testProtocol: Growth inhibition of humanized yeast strain expressing SCD5 as sole desaturase
Format: cell-based
conditionInfo: humanized yeast strain expressing SCD5
Below, each entry is listed with its recorded SCD5 % Max Inhibition.
Answer as a quantity: numeral, then unit.

Recorded results for 3 compounds are shown here.
compound	SCD5 % Max Inhibition
O=C(NCC(=O)N1CCC(c2nc(-c3ccc(F)cc3)no2)CC1)c1ccccc1	43.51%
Cc1nn(C(C)C)c2cc(-c3noc(C4CCN(C(=O)OC(C)(C)C)CC4)n3)ccc12	23.2%
CC(C)c1ccc(C(=O)N2CCC(c3nc(C(=O)Nc4cnn(C)c4)no3)CC2)cc1	30.09%

Next compound, SCD5 % Max Inhibition to be filled in.
Endpoint output: SCD5 % Max Inhibition of COc1ccc(-c2noc(C3CCN(C(=O)C4CC(=O)N(C5CCCCC5)C4)CC3)n2)cc1OC (stereo not shown) . Value? 94.83%

* * *

Below, each entry is listed with its recorded pIC50.
systemName: SCD5 (Homo sapiens)
Construct: host or cells: S. cerevisiae ole1Δ strain (W303 pdr1Δ pdr3Δ background), plasmid pRS316 with TDH3 promoter and CYC1 terminator
testProtocol: Growth inhibition of humanized yeast strain expressing SCD5 as sole desaturase
Type: cell-based
conditionInfo: humanized yeast strain, 40 h
// scale note: pIC50 = -log10(conc_M); give the bare number

Recorded results for 3 molecules are shown here.
molecule	systemName	pIC50
COC(=O)N1CCC(c2noc(-c3ccc4cnn(C5CCS(=O)(=O)C5)c4c3)n2)CC1 (stereo not shown) [Compound 1077]	SCD5 (Homo sapiens)	6.52
C[C@H]1CN(c2noc(-c3ccc4cnn(C5COC5)c4c3)n2)CCN1C(=O)OC(C)(C)C [Compound 956]	SCD5 (Homo sapiens)	5.61
CC(C)c1noc2ccc(-c3noc(C4CCN(C(=O)C5CC5)CC4)n3)cc12 [Compound 941]	SCD5 (Homo sapiens)	4.69

Endpoint output: pIC50 of CC(C)(C)OC(=O)N1CCC(c2cc(-c3cc4c(cn3)cnn4C3COC3)on2)CC1 [Compound 1107] . Value? 8.00

* * *

systemName: SCD5 (Homo sapiens, UniProt Q86SK9)
Construct: host or cells: S. cerevisiae ole1Δ strain (W303 pdr1Δ pdr3Δ background), plasmid pRS316 with TDH3 promoter and CYC1 terminator
testProtocol: Growth inhibition of humanized yeast strain expressing SCD5 as sole desaturase
Type: cell-based
conditionInfo: growth inhibition of humanized yeast strain expressing human SCD5
attributeMeasured: pIC50
// scale note: pIC50 = -log10(conc_M); give the bare number

molecule	experimentalValue
COC(=O)N1CCC(c2noc(-c3ccc4cnn(C5COC5)c4c3)n2)CC1	7.89
CC(C)(C)COC(=O)N1CC(c2nc(-c3ccc4cnn(C5COC5)c4c3)no2)C1	5.32
CC(C)(C)OC(=O)N1CC(c2nc(-c3ccc4cnn(C5COC5)c4c3)no2)C1	6.15
CC(C)(C)OC(=O)N1CCC(c2nc(-c3cccc(C4CCOC4)c3)no2)CC1 (centres unmarked)	7.05
CC(=O)N1CC(n2ncc3ccc(-c4noc(C5CCN(C(=O)OC(C)(C)C)CC5)n4)cc32)C1	7.30

Next molecule, pIC50 to be filled in.
Endpoint output: pIC50 of CC(C)n1ncc2ccc(-c3noc(C4CCN(C(=O)C(C)(C)C#N)CC4)n3)cc21 . Value? 5.77

* * *

systemName: SCD5 (Homo sapiens, UniProt Q86SK9)
Construct: host or cells: S. cerevisiae ole1Δ strain (W303 pdr1Δ pdr3Δ background), plasmid pRS316 with TDH3 promoter and CYC1 terminator
testProtocol: Growth inhibition of humanized yeast strain expressing SCD5 as sole desaturase
Assay type: cell-based
conditionInfo: humanized yeast strain, 40 h
attributeMeasured: IC50 (nM)
Provide the reading as a plain figure in nM.

Recorded results for 5 compounds are shown here.
compound	systemName	IC50 / nM
COCCOC(=O)N1CCC(c2noc(-c3ccc4cnn(C5COC5)c4c3)n2)CC1	SCD5 (Homo sapiens, UniProt Q86SK9)	4420
CC(C)(C)OC(=O)N1CCC(c2noc(-c3cc(F)c4cnn(C5COC5)c4c3)n2)CC1	SCD5 (Homo sapiens, UniProt Q86SK9)	478
C=C(C)c1nccn2cc(-c3nc(C4CCN(C(=O)OC(C)(C)C)CC4)no3)cc12	SCD5 (Homo sapiens, UniProt Q86SK9)	10
CC(C)(C)OC(=O)N1CCC(c2ccc(-c3ccc4cnn(C5COC5)c4c3)cn2)CC1	SCD5 (Homo sapiens, UniProt Q86SK9)	150
O=C(N1CCC(c2noc(-c3cnc4cnn(C5COC5)c4c3)n2)CC1)C1(F)CC1	SCD5 (Homo sapiens, UniProt Q86SK9)	61.3

Record lookup: for SCD5 (Homo sapiens, UniProt Q86SK9), what IC50 belongs to COC(=O)N1CCC(c2noc(-c3ccc4ccn(C5COC5)c4c3)n2)CC1 ? 10

Okay, and CC(C)(C)OC(=O)N1CCC(c2noc(-c3ccc4cnn(C5COC5)c4c3F)n2)CC1 ? 24

Okay, and O=C(c1ncccc1F)N1CCC(c2noc(-c3ccc4cnn(C5COC5)c4c3)n2)CC1 ? 10

* * *

systemName: SCD5 (Homo sapiens, UniProt Q86SK9)
Construct: host or cells: S. cerevisiae ole1Δ strain (W303 pdr1Δ pdr3Δ background), plasmid pRS316 with TDH3 promoter and CYC1 terminator
testProtocol: Growth inhibition of humanized yeast strain expressing SCD5 as sole desaturase
Type: cell-based
conditionInfo: humanized yeast strain, 40 h
Below, each entry is listed with its recorded IC50.
Provide the reading as a plain figure in nM.

Recorded results for 6 compounds are shown here.
compound	systemName	unitDescriptor	IC50
C[C@@H]1C[C@@H](c2noc(-c3ccc4cnn(C5COC5)c4c3)n2)CCN1C(=O)C1(F)CC1 [Compound 1065]	SCD5 (Homo sapiens, UniProt Q86SK9)	nM	0.386
CC(C)(C)OC(=O)N1CCC(c2noc(-c3cc(F)c4cnn(C5CCOC5)c4c3)n2)CC1 (centres unmarked) [Compound 1075]	SCD5 (Homo sapiens, UniProt Q86SK9)	nM	10
CC(C)(C)OC(=O)N1CCCN(c2noc(-c3ccc4cnn(C5COC5)c4c3)n2)CC1 [Compound 854]	SCD5 (Homo sapiens, UniProt Q86SK9)	nM	10
CC(C)(C)OC(=O)N1CCC(c2noc(-c3ccc(=O)n(C4CCOC4)c3)n2)CC1 (centres unmarked) [Compound 1114]	SCD5 (Homo sapiens, UniProt Q86SK9)	nM	116
COC(=O)N1CCC(c2noc(-c3ccnc(C4CCOC4)c3)n2)CC1 (centres unmarked) [Compound 1015]	SCD5 (Homo sapiens, UniProt Q86SK9)	nM	429
COC(=O)N1CCCN(c2noc(-c3ccc4cnn(C5COC5)c4c3)n2)CC1 [Compound 857]	SCD5 (Homo sapiens, UniProt Q86SK9)	nM	26800

Next compound, IC50 to be filled in.
Endpoint output: IC50 of O=C(N1CCC(c2noc(-c3ccnc(NC4COC4)c3)n2)CC1)C1(F)CC1 [Compound 1116] . Value? 1410

* * *

Below, each entry is listed with its recorded pIC50.
systemName: SCD1 (Homo sapiens)
Construct: host or cells: S. cerevisiae ole1Δ strain (W303 pdr1Δ pdr3Δ background), plasmid pRS316 with TDH3 promoter and CYC1 terminator
Sequence (O00767 whole entry): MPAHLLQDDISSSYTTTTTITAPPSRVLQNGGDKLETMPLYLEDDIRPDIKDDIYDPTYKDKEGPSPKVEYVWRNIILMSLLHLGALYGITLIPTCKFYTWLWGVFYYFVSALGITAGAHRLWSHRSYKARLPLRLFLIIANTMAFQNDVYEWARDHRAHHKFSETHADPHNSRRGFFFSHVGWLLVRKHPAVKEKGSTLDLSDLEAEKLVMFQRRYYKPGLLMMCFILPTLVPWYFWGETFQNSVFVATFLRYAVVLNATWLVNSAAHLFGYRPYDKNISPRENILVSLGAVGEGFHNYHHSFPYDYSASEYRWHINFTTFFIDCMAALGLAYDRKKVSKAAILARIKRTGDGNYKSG
testProtocol: Growth inhibition of humanized yeast strain expressing SCD1 as sole desaturase
Type: cell-based
conditionInfo: growth inhibition of humanized yeast strain expressing human SCD1
pIC50: −log10 of the molar value.

Recorded results for 4 molecules are shown here.
molecule	systemName	pIC50
CCOC(=O)N1CCN(c2nc(-c3ccc4cnn(C(C)C)c4c3)no2)CC1 [Compound 668]	SCD1 (Homo sapiens)	< 4.35
CC(C)n1ncc2ccc(-c3noc(C4(F)CCN(C(=O)OC5(C)CC5)CC4)n3)cc21 [Compound 625]	SCD1 (Homo sapiens)	< 4.35
CC(C)(C)OC(=O)N1CCC(c2nc(-c3ccc4cnn(C5CCCOC5)c4c3)no2)CC1 (centres unmarked) [Compound 720]	SCD1 (Homo sapiens)	< 4.35
Cc1nn(C)c2cc(-c3noc(C4CCN(C(=O)CN)CC4(F)F)n3)ccc12 (centres unmarked) [Compound 665]	SCD1 (Homo sapiens)	< 4.35

Endpoint output: pIC50 of CC(C)(C)OC(=O)N1CCN(c2nc(-c3ccc4cnn(C5COC5)c4c3)no2)CC1 [Compound 664] . Value? 4.63
